Field: self-cleavage. Provide a value for each of the variants that follow.
B1: OR4K15 (parent)
chain: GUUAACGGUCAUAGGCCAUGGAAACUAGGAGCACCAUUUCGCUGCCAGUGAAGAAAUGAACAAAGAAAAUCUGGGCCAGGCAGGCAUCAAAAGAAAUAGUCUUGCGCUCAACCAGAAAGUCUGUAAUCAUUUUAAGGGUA

# Variants of: B1
# assay-info: self-cleavage, relative activity (ratio to wild type); higher = more cleavage; in vitro, sequencing; the parent is a self-cleaving ribozyme
Output spec: single numeric token, no unit.

Field request: self-cleavage | item: A5U A55U
1.15

So what does the record say about self-cleavage for U38C U39A ?
0.89

For the variant shown here, A23G A129G , give the reported self-cleavage.
0.35

Which value of self-cleavage has been reported for A11G A90U in the records?
1.69

Need self-cleavage, item A18G G65U
1.18

// returns reported self-cleavage for input A11G U124C
0.34

For A68G A89C , what is its reported self-cleavage?
1.1

Name the recorded self-cleavage for G31C U87C .
2.1

Query (variant): U37C A54G ; field requested: self-cleavage
1.51

Value lookup for self-cleavage; key = A62U A82G
0.67

Entry A60U A117U : reported self-cleavage = ?
1.11

Fill in: self-cleavage of U9A G41A is ___
1.34

Would you mind telling me what self-cleavage value was observed for A36C A135G ?
2.33

// returns reported self-cleavage for input U57A U127A
1.95

Entry A64U G75A has what self-cleavage?
0.1

Quick one: self-cleavage of G50U U124A ?
0.91

Data request, read-out self-cleavage, for A24G U133C
1.14

Fill in: self-cleavage of A67G A90U is ___
1.13

# get_value(readout='self-cleavage', item= A54G A94G )
1.2

Value lookup for self-cleavage; key = A55C A110G
1.02

Need self-cleavage, item U38A A67G
0.89

What value of self-cleavage has been reported for the following variant? G74U G119A
0.19

Entry A47G A66U : reported self-cleavage = ?
1.11
